Tested on: COLO 205 colon
Assay Info: NCI tumour cell line growth inhibition, 48 h; in the data active = GI50 below about 0.43 µM; inactive = the rest
Outcome codes: yes (active), no (inactive)

[[record]]
molecule = "COc1ccc(-c2nn3ncccc3c2-c2ccnc(Nc3ccc(Cl)c(C(F)(F)F)c3)n2)cc1"
measured_target = "COLO 205 colon"
class_name = "no"

[[record]]
molecule = "O=C(Nc1ccc(N2CCNCC2)cc1)c1[nH]ncc1Nc1ncnc2sc3c(c12)CCC3"
measured_target = "COLO 205 colon"
class_name = "yes"

[[record]]
molecule = "O=C(NNc1nc(Cl)nc(N2CCN(C(c3ccccc3)c3ccccc3)CC2)n1)c1ccccc1"
measured_target = "COLO 205 colon"
class_name = "no"

[[record]]
molecule = "CNC(=O)c1cc(OC2CCC(NC(=O)Nc3ccc(Cl)c(C(F)(F)F)c3)CC2)ccn1 (configuration not stated)"
measured_target = "COLO 205 colon"
class_name = "no"

[[record]]
molecule = "Cc1ccc2[nH]cc(-c3nc(-c4c[nH]c5ncccc45)cs3)c2c1"
measured_target = "COLO 205 colon"
class_name = "yes"

[[record]]
molecule = "CNC(P(=O)([O-])[O-])P(=O)([O-])[O-].N.N.[Pt+2]"
measured_target = "COLO 205 colon"
class_name = "no"

[[record]]
molecule = "Cc1ccc(-[n+]2c3cc(N)c(C)cc3nc3cc(C)c(Nc4ccccc4)cc32)cc1"
measured_target = "COLO 205 colon"
class_name = "yes"

